- Experimental target: humanized 3E10 V66 (CHO) (synthetic construct, UniProt P01857; SEQ:1-446,SEQ:1-218)
- Sequence (P01857 other isoform, or with tags, fused parts or gaps, chain 1 of 2): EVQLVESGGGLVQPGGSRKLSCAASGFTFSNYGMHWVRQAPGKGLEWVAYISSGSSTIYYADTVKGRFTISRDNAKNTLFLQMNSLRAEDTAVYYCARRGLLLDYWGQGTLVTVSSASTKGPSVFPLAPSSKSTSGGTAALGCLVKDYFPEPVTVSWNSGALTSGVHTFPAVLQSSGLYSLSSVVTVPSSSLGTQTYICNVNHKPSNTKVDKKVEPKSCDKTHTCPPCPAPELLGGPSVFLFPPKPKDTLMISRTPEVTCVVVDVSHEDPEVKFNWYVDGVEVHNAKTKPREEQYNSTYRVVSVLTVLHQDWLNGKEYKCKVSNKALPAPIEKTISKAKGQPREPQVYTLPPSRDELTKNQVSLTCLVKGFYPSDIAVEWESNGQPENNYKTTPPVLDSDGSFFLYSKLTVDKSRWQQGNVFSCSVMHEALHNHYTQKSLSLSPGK
- Sequence (chain, as listed by the source, chain 2 of 2): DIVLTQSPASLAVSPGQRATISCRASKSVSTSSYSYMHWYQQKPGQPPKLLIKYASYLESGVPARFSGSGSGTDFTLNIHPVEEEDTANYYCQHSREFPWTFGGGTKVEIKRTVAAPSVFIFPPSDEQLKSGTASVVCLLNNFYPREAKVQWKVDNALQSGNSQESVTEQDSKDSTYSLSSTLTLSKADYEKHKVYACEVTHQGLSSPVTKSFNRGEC
- Test name: BLI; 1:1 model; antibody on AHC2 sensor; ka 3.08E5, kdis 7.99E-4
- Conditions used: tags: human Fc IgG; transiently expressed in CHO; chain copies: 2 heavy + 2 light (inferred); hairpin
Measured endpoint: Kd (nM)

3p-hpRNA RIG-I agonist (89 nt) (ssRNA, 5'-triphosphate) RNA: GGAGCAAAAGCAGGGUGACAAAGACAUAAUGGAUCCAAACACUGUGUCAAGCUUUCAGGUAGAUUGCUUUCUUUGGCAUGUCCGCAAAC = 2.6

These measurements were taken from patent US20230303719.
